Experiment: compound effects on lung adenocarcinoma cell viability – A549, calcein-AM fluorescence, 48 h, basal, profiling panel (AID 1162); note: test concentration not given here
Details: higher = more signal
Recorded z-score values for a group of compounds are listed next.

# annotated cases, reported z-score shown
Compound: CC1CC/C=C\[C@H]2OC34C=CCN(Cc5ccccc5)C(=O)[C@H]3N(C(CO)C(C)C)C(=O)[C@@H]4C2C(=O)O1 (stereo partly specified)
z-score: 0.743
--
Compound: O=C1O[C@H](c2ccccc2)[C@H](c2ccccc2)N2[C@H]1[C@@H](C(=O)O)[C@]1(C(=O)Nc3ccc(C#CCCO)cc31)[C@H]2c1ccccc1OCCO
z-score: -0.0678
--
Compound: Cc1ccc(S[C@]2(C(=O)NCC(F)(F)F)CC(=O)N(Cc3cc(C(F)(F)F)cc(C(F)(F)F)c3)[C@@H]2c2ccc(CO)cc2)cc1
z-score: 0.0806

Exercise: Fill in: z-score of CCOC(=O)[C@@H]1CCCCN1C(=O)C(=O)OC is ___
Key: -0.856

Exercise: Fill in: z-score of [N-]=[N+]=Nc1ccccc1[C@H]1OC(c2ccc(OCCCO)cc2)=N[C@@]1(Cc1ccccc1)C(=O)NCCN1CCOCC1 is ___
Key: -0.449

Exercise: Fill in: z-score of COc1cc(NN2C(C(O)c3ccco3)C=CC3C(=O)N(C)C(=O)C32)cc(OC)c1OC (stereo unspecified) is ___
Key: -1.2

Exercise: Fill in: z-score of COc1ccc(CCNC(=O)[C@@]2(Sc3ccc(C)cc3)CC(=O)N(Cc3ccccc3C(F)(F)F)[C@@H]2c2ccc(CO)cc2I)cc1 is ___
Key: 0.751

Exercise: Fill in: z-score of COCCOC(=O)N1C(=O)[C@@]2(c3cc(C#CCCO)ccc31)[C@H](c1ccc(OCCO)cc1)N1[C@H](c3ccccc3)[C@H](c3ccccc3)OC(=O)[C@H]1[C@@H]2C(=O)Nc1nc2ccccc2s1 is ___
Key: -0.255

Exercise: Fill in: z-score of COC(=O)C1=CC(CCCO)=CC(c2ccc(CN3CCCC3)cc2)N(Cc2cccc(OC(F)(F)F)c2)C=C1C(=O)OC (stereo unspecified) is ___
Key: 0.589

Exercise: Fill in: z-score of CN(C)C(=O)[C@@]1(Cc2ccccc2)N=C(c2ccc(OCCCO)cc2)O[C@H]1c1ccccc1 is ___
Key: -0.518

Exercise: Fill in: z-score of COc1ccc(CCNC(=O)[C@@H]2c3ccccc3C(=O)N(C3CCCCC3)[C@H]2c2ccc(CO)cc2)cc1 is ___
Key: 1.19

Exercise: Fill in: z-score of O=c1cccc(-c2ccc([N+](=O)[O-])cc2)o1 is ___
Key: 0.419

Exercise: Fill in: z-score of C=CC[C@]1(C(=O)N2CCCCC2)N=C(c2ccc(OCCCO)cc2)O[C@H]1c1ccccc1CN=[N+]=[N-] is ___
Key: -0.416

Exercise: Fill in: z-score of COC(=O)c1c(CC[C@@H](CO)NC(=O)N[C@@H](C)Cn2cc(-c3ccccn3)nn2)oc(C(C)=O)c1C(=O)OC is ___
Key: -0.495

Exercise: Fill in: z-score of CCCCN1CC=CC23O[C@@H]4/C=C\CCC(C)OC(=O)C4[C@H]2C(=O)N(CCCO)[C@@H]3C1=O (stereo partly specified) is ___
Key: -0.615

Exercise: Fill in: z-score of C=CC[C@@H](OC(=O)Nc1ccc(OC)cc1)c1ccc(O)c(F)c1 is ___
Key: -1.78
